Each entry below carries its reported fraction ligated.
B1: minF1; the commonest letter at each place (parent)
chain: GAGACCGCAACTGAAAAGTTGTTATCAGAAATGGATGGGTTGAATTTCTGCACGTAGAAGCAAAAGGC

# Variants of: B1
# Experimental Details: fraction ligated after 30 min (ligated reads / total reads); higher = more ligase activity
# Measurement Setup: with F1*subA RNA substrate (template-directed ligation), 42 °C
Number only, please.

A35C A43T has a reported fraction ligated of 0.00614

Briefly, fraction ligated measured for "G33C" : 0.804

# variant A24T A31G ; its fraction ligated = 0.00616

For reference, reported fraction ligated for T32A A43G stands at 0.0134

Record summary for A30G G34T : reported fraction ligated = 0.00265

Memo: T23A A24C , reported fraction ligated: 0.0188

Recorded fraction ligated (variant A24G G37T ): 0.00318

Looking up A24T G34C , I see its fraction ligated listed as 0.00388

The variant listed as A29T A35G shows fraction ligated equal to 0.153
